Each recorded value in this set is attributed to ChEMBL document CHEMBL5316329.

target: Cytochrome P450 2C9 (Homo sapiens); test: Inhibition of CYP2C9 (unknown origin); type: ADME
Sequence (P11712 whole entry): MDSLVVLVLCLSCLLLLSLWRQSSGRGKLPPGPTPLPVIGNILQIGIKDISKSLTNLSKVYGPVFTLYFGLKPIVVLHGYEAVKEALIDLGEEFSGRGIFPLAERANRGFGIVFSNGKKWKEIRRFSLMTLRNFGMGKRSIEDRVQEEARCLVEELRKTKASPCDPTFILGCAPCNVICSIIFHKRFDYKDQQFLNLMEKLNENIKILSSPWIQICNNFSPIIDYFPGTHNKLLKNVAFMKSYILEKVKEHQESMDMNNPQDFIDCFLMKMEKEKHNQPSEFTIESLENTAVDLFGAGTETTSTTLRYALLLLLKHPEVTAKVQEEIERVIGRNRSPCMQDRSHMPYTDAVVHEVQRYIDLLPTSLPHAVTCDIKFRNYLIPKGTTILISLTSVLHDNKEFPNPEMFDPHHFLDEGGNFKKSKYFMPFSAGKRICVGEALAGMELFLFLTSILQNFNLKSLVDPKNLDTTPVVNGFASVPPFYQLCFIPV
The molecules listed here are annotated with their pIC50.
pIC50 field: float, defined as -log10 of concentration (mol/L).

Task item: Fill in: pIC50 on Cytochrome P450 2C9 (Homo sapiens), entry Cc1cc(/C=C/C#N)cc(C)c1Cc1nc(NC2CCN(Cc3ccc(S(C)(=O)=O)cc3)CC2)ncc1-c1cncnc1
Reply: 5.02

Proceed to the following item.
Task item: Fill in: pIC50 on Cytochrome P450 2C9 (Homo sapiens), entry Cc1cc(/C=C/C#N)cc(C)c1Cc1nc(NC2CCN(Cc3ccc(C(N)=O)cc3)CC2)ncc1-c1cncnc1
Reply: 4.72
